# Test system: UO-31
# TEST_METHOD_NOTES: NCI tumour cell line growth inhibition, 48 h
Activity calls are given as the source filed them. Cut-off read from the data, not from the text of the source: active = GI50 up to about 1.1 µM and inactive = higher.
ASSAY_METRIC: GI50

Solved cases (5 shown):
MOLECULE	ASSAY_METRIC	RESULT
CC1=C(C(=O)Nc2c(C)cccc2C)C(c2ccc3c(c2)OCO3)C(C(=O)Nc2c(C)cccc2C)=C(C)N1	GI50	16.9 µM (inactive)
CN(c1nc(=[N+](C)C)ss1)C1CCCCC1	GI50	> 100 µM (inactive)
Cc1ccccc1C1OC1C(=O)c1ccccc1N (stereo not drawn)	GI50	78.7 µM (inactive)
O=C1NC(=O)/C(=C/c2ccc(S(=O)(=O)N/N=C/c3ccccc3)cc2)N1	GI50	> 100 µM (inactive)
O=C(CC(c1ccccc1)C1C(=O)NC(=S)NC1=O)c1ccc([N+](=O)[O-])cc1 (stereo not drawn)	GI50	> 100 µM (inactive)

For the molecule O=C(O)c1nn(-c2ccccc2)nc1-c1nn(-c2ccccc2)nc1C(=O)O , what GI50 is on record?
> 100 µM (inactive)

GI50 lookup needed for CC1CC2=Nc3ccccc3NC(c3ccccc3)C2=C(O)O1 (stereo not drawn) , thanks.
> 100 µM (inactive)

Which GI50 is reported for this molecule? CC1(C)CC23C4COC(=O)C2CCC1C3CC4=O (stereo not drawn)
28.6 µM (inactive)

---

# Test system: HL-60
# TEST_METHOD_NOTES: NCI tumour cell line growth inhibition, 48 h
Activity calls are given as the source filed them. Rule as the data show it: active = GI50 up to about 1.1 µM and inactive = higher.
Below, each entry is listed alongside its reported GI50.

What GI50 value was documented for this molecule, CCN(CC)CCCCC1CCN(CC(=O)N2c3ccccc3NC(=O)c3ccccc32)CC1 ?
> 100 µM (inactive)

---

# Test system: CAKI-1
# TEST_METHOD_NOTES: NCI tumour cell line growth inhibition, 48 h
Calls of active or inactive are those of the source. Cut-off read from the data, not from the text of the source: active = GI50 up to about 1.1 µM and inactive = higher.
# GI50 per record follows

Recorded GI50, per entry:
COMPOUND	GI50
CC(=O)NC(CCCOC(C)=O)C(=O)NC(CCCOC(C)=O)C(=O)NC(CCCOC(C)=O)C(=O)NC(Cc1ccc([N+](=O)[O-])cc1)C(=O)NCC(=O)OCc1ccccc1 (stereo not drawn)	> 100 µM (inactive)
COc1ccc2c(c1)[n+]([O-])c(C(=O)C/C(=N/NC(=O)C[N+](C)(C)C)C(=O)Nc1cccc(C)c1C)c(C)[n+]2[O-]	> 100 µM (inactive)

Next:
Using the record for CC1(c2nc3ccccc3[nH]2)CCC(C(N)=O)C(C)(C)O1 (stereo not drawn) , report its GI50.
> 100 µM (inactive)

---

# Tested on: SK-MEL-28
# TEST_METHOD_NOTES: NCI tumour cell line growth inhibition, 48 h
Activity calls are given as the source filed them. Cut-off read from the data, not from the text of the source: active = GI50 up to about 1.1 µM and inactive = higher.
ASSAY_METRIC: GI50

MOLECULE	GI50
O=C1NC2(C=Cc3c(ccc4ccccc34)O2)Oc2ccccc21 (stereo unspecified)	15.6 µM (inactive)
CC(=O)OCC1OC(n2c3c(cc(C#N)c2=S)CCCCCC3)C(OC(C)=O)C(OC(C)=O)C1OC(C)=O (stereo unspecified)	> 100 µM (inactive)
Cc1ccccc1N(C)S(=O)(=O)c1ccccc1[N+](=O)[O-]	54.1 µM (inactive)
NCCCNC1(c2cc3ccccc3s2)CCCCC1	2.12 µM (inactive)
CC(=O)NC(CCCOC(C)=O)C(=O)NC(CCCOC(C)=O)C(=O)NC(CCCOC(C)=O)C(=O)NC(Cc1ccc([N+](=O)[O-])cc1)C(=O)NCC(=O)OCc1ccccc1 (stereo unspecified)	> 100 µM (inactive)
COc1ccccc1NCC(=O)Nn1c(C)nc2ccc(S(=O)(=O)Nc3ccccc3OC)cc2c1=O	> 100 µM (inactive)

Identify the measured GI50 of C/C(CC1C2CCCC1C2)=N\NC(N)=O (stereo unspecified) for SK-MEL-28.
> 100 µM (inactive)

Recorded GI50 for CN(CCO)c1nc(=O)c2c([nH]1)CCC2 with SK-MEL-28, please?
> 100 µM (inactive)

I'm curious: which GI50 was measured for CCOC(=O)c1c(O)cn2c1[nH]c1cccc3cccc2c31 tested on SK-MEL-28?
> 100 µM (inactive)

Request body: readout GI50, system SK-MEL-28, query COC(=O)C1=CC2CC1C(S(=O)(=O)c1ccccc1)C2S(=O)(=O)c1ccccc1 (stereo unspecified) . Return the value.
14.1 µM (inactive)

# value lookup — system SK-MEL-28, readout GI50, item CCOC(=O)C1(C/C=C/CBr)Cc2ccccc2C1=O (stereo unspecified)
6.93 µM (inactive)

Report GI50 for CCN(CC)CCCNC(=O)c1cc2cc(NC(=O)c3cc4cc([N+](=O)[O-])ccc4[nH]3)ccc2[nH]1 tested on SK-MEL-28.
30.3 µM (inactive)

Identify the measured GI50 of O=C1CCC(=O)c2ccccc2N1 for SK-MEL-28.
> 100 µM (inactive)

Query for SK-MEL-28: what GI50 does the record show for COc1ccc2c(c1)CCC(CN1CCN(CCOC(c3ccc(F)cc3)c3ccc(F)cc3)CC1)=C2 ?
21.3 µM (inactive)

Provide the documented GI50 with SK-MEL-28 as the system for COC(=O)C(C(=O)C(=O)Nc1ccc([N+](=O)[O-])cc1)c1nc2ccc([N+](=O)[O-])cc2nc1O (stereo unspecified)
> 100 µM (inactive)

Recall the recorded GI50 for COC(=O)/C(C#N)=C1\CCC(O)N1C (stereo unspecified) with SK-MEL-28 and state it.
> 100 µM (inactive)

Under SK-MEL-28: GI50 value of CC1Cc2c(N)nc(N3CCOCC3)nc2NC1=O (stereo unspecified) ?
> 100 µM (inactive)
